# experimental system: GABA-A receptor; anion channel
# method description: Inhibition of rat GABAA receptor
observable: IC50 (nM)
The figure you give is taken to be in nM; do not add the unit.

IN: Please give the measured IC50 for this compound: COc1ccc(CNC(=O)c2sc3nnc(C)c(C)c3c2N)cc1F
OUT: 1200

###

# method description: Ratio of unbound drug level in Sprague-Dawley rat brain to plasma at 1 to 10 mg/kg, po by LC-MS/MS analysis
# Format: ADME, organism-based
# assay context: dose 1-10 mg/kg, read-out: K(p,uu,brain)
observable: Kp uu
Answer with a bare number; do not write a unit.

IN: Please give the measured Kp uu for this molecule: COc1ccc(CNC(=O)c2sc3nnc(C)c(C)c3c2N)cc1F
OUT: 0.37
